# System: KM12 colon
# experimentalProtocol: NCI-60 one-dose screen, 48 h (100 = growth as untreated, 0 = no growth, -100 = all killed)
# measurementConditions: 10 µM unless noted
The panel holds about 83,000 compounds, 20% with a hit somewhere; the sample as a whole holds those more often.
readoutKind: growth (%)

>>> observedvalue("COC(=O)c1c2c(c(C)[n+]([O-])c1C)C(=O)C=C(NCc1ccc(F)cc1)C2=O")
1.23
>>> observedvalue("Cc1nc(-c2ccccc2)cc2c(O)c(C(=O)N/N=C/Cc3ccccc3)[nH]c(=O)c12")
115
>>> observedvalue("O=S(=O)(Nc1ccc(Cl)c(Cl)c1)c1ccc(-c2cnc(C3CC3)o2)cc1")
20
>>> observedvalue("Cc1nc2cc(Nc3nc(Nc4ccc(F)cc4)nc(N4CCN(C)CC4)n3)ccc2n1Cc1ccccc1")
17
>>> observedvalue("CCN1C(=O)C2(Nc3ccccc3S2)c2cc(C)ccc21 (stereo not given)")
107
>>> observedvalue("CCCCCCCCCCCCCCNc1nc(CO)ncc1-c1ccc(C(F)(F)F)cc1")
99.4
>>> observedvalue("O=C1/C(=C/c2ccc(F)cc2)CN(Cc2cn(CCNc3ccnc4cc(Cl)ccc34)nn2)C/C1=C\\c1ccc(F)cc1")
-71.4
>>> observedvalue("COc1cccc(C2CC(=O)Nc3cc4c(cc32)OCO4)c1OC (stereo not given)")
91.6
>>> observedvalue("Cc1cc(NS(=O)(=O)c2ccc(NC(=O)COc3ccc(-c4cc5ccccc5[nH]4)cc3)cc2)no1")
10.3
>>> observedvalue("Nc1nc(N)c(C=Nc2ccc(Br)cc2)c(Nc2ccc(Br)cc2)n1")
86.3
>>> observedvalue("O=C(NC1CC1)c1cc2n(n1)CC(c1ccccc1)N2 (stereo not given)")
102
>>> observedvalue("Cc1ccc2nc(NC(=O)CSC(=S)N3CCN(C)CC3)sc2c1")
111
>>> observedvalue("O=C1c2cc(S(=O)(=O)O)ccc2C(=O)c2c1cccc2[N+](=O)[O-]")
104
>>> observedvalue("CC(C)(C)[Si](C)(C)OC1[C@@H](COC(=O)NC(=O)CCl)O[C@@H](n2cnc3c(N)ncnc32)[C@H]1O[Si](C)(C)C(C)(C)C (stereo not given in full)")
19.9
>>> observedvalue("O=C1C=CC(=O)N1CCCCCCCCCCN1C(=O)C=CC1=O")
86.2
>>> observedvalue("NC(=O)c1cc(I)ccc1NC(=O)COc1ccccc1")
19.9
>>> observedvalue("c1ccc(-c2nc(N3CCOCC3)c3c4c(sc3n2)CCCCCC4)nc1")
44.7
>>> observedvalue("Cn1cc(C(=O)NCCC(=N)N)cc1NC(=O)CN=C(N)N")
104
>>> observedvalue("Cc1nc2cc(Nc3nc(NCCN)nc(Nc4ccc(F)cc4)n3)ccc2n1Cc1ccccc1")
70.6
>>> observedvalue("COC1(OC)C2(Cl)C=C(c3ccccc3)C1(Cl)C(Cl)=C2Cl (stereo not given)")
109

---

# Test system: T-47D breast
# experimentalProtocol: NCI-60 one-dose screen, 48 h (100 = growth as untreated, 0 = no growth, -100 = all killed)
# measurementConditions: 10 µM
The panel holds about 83,000 compounds, 20% with a hit somewhere; the sample as a whole holds those more often.
growth for assorted compounds
readoutKind: growth (%)

>>> observedvalue("COc1c(O)c2c3c(c1OC)-c1ccccc1CC3N(S(=O)(=O)c1ccc(C)cc1)CC2 (stereo unspecified)")
62
>>> observedvalue("CC(=O)N(CC(O)CO)c1c(I)c(C(=O)NCCO)c(I)c(C(=O)NCC(O)CO)c1I (stereo unspecified)")
101
>>> observedvalue("O=C(O)CCN1CCN(c2cccc(Cl)c2)CC1")
98.3
>>> observedvalue("COc1ccc(Sc2ccc3[nH]c(=O)nc(N)c3c2)cc1")
94.3
>>> observedvalue("COc1ccc(-c2nc3sc(C)nn3c2-c2nc3cc(C)c(C)cc3[nH]2)cc1")
95.4
>>> observedvalue("O=[N+]([O-])c1ccc2nc(N/N=C/c3ccc(O)cc3)sc2c1")
35.1
>>> observedvalue("O=c1c2cc(F)ccc2oc2c(NCCNCCO)nc3ccccc3c12")
84.8
>>> observedvalue("Cn1c(=O)c2c(-c3ccccc3F)n(-c3ccc4c(c3)OCO4)cc2n(C)c1=O")
81.3
>>> observedvalue("COC(=O)CCC(=O)c1ccccc1")
102
>>> observedvalue("CCOC(=O)C1=C(C)N2C(=NC3=C(CCCC/C3=C\\c3cc(OC)c(OC)c(OC)c3)C2c2cc(OC)c(OC)c(OC)c2)S1 (stereo unspecified)")
45.9
>>> observedvalue("COc1ccc(OC2=C(C#N)C(=N)N3c4ccccc4Sc4ccccc4C3N2)cc1 (stereo unspecified)")
87
>>> observedvalue("Cn1c2c(cc(S(=O)(=O)c3ccccc3)c1=O)CCc1c-2cnn1-c1ccccc1Cl")
68
>>> observedvalue("COc1ncc(F)c(OC)n1")
104
>>> observedvalue("O=C(N/N=C/c1ccc(F)cc1)c1[nH]c2ccc(I)cc2c1-c1ccccc1")
48.4
>>> observedvalue("Cc1nc2cc(Nc3nc(Cl)nc(Nc4ccc(F)cc4)n3)ccc2n1Cc1ccccc1")
57
>>> observedvalue("Cc1nc2cc(Nc3nc(Nc4ccc(F)cc4)nc(-c4ccc(Cl)cc4)n3)ccc2n1Cc1ccccc1")
30.7
>>> observedvalue("O=c1[nH]c(-c2ccncc2)nc2sc3c(c12)CCCCCC3")
24.6
>>> observedvalue("COC(=O)C1C2CC3c4[nH]c5cc(OC)ccc5c4CCN3CC2CC(OC2CCCCO2)C1OC (stereo unspecified)")
108
>>> observedvalue("O=c1[nH]c(-c2ccccn2)nc2sc3c(c12)CCCCCC3")
42.6
>>> observedvalue("CCOC(=O)c1c(-c2cc(OC)c(OC)c(OC)c2)csc1N")
94
>>> observedvalue("O=C1c2[nH]cc(CN[C@@H]3CCCN3)c2C(=O)c2c1c(O)c1ccccc1c2O")
-72.4
